Parameter viability at 24 h, 20 µM: see the listing below.
test: Cell viability by MTT assay; assay type: cell-based, murine; details: mouse, BV-2 microglial cells, percentage of the LPS-only treatment group, compounds at 20 μM, 1 μg/mL LPS, BV-2 cells

compound | viability at 24 h, 20 µM
CC(=O)O[C@@]12C[C@H](O)[C@]1(C)C[C@H]1C[C@@](C)(CO)CC1=C2C | 97.1%
CC(=O)O[C@@]12CC[C@]1(C)C[C@H]1C[C@@](C)(CO)CC1=C2C | 107%
CC(=O)OCC1(C)CC2=C(C)C3(OC(C)=O)CCC3(C)CC2C1 (stereo not shown) | 103%
CC1=C2C[C@](C)(CO)C[C@@H]2C[C@@]2(C)CC[C@@]12O | 98.7%
CC1=C2C[C@@](C)(C(=O)O)C[C@H]2C[C@](C)(O)C12CC2 | 104%
O=c1c(O)c(-c2ccc(O)c(O)c2)oc2cc(O)cc(O)c12 [Quercetin, quercetin, reference compound] | 102%
C/C(=C\CO)CC/C=C(\C)CC[C@@H](O)C(C)(C)O [Compound 8, (–)-10,11-dihydroxyfarnesol] | 99.1%
